The reported measurements were obtained from PubChem BioAssay AID720708.

target: Rap guanine nucleotide exchange factor 4 (Homo sapiens) (UniProt Q8WZA2); assay: qHTS for Antagonist of cAMP-regulated guanine nucleotide exchange factor 2 (EPAC2): primary screen; conditions: EPAC2 GEF exchange of Rap1B-BODIPY-GDP, fluorescence; series mostly up to 114 µM; note: nearly all actives have a fitted effect of over 45% in size
Sequence (Q8WZA2 whole entry, looked up): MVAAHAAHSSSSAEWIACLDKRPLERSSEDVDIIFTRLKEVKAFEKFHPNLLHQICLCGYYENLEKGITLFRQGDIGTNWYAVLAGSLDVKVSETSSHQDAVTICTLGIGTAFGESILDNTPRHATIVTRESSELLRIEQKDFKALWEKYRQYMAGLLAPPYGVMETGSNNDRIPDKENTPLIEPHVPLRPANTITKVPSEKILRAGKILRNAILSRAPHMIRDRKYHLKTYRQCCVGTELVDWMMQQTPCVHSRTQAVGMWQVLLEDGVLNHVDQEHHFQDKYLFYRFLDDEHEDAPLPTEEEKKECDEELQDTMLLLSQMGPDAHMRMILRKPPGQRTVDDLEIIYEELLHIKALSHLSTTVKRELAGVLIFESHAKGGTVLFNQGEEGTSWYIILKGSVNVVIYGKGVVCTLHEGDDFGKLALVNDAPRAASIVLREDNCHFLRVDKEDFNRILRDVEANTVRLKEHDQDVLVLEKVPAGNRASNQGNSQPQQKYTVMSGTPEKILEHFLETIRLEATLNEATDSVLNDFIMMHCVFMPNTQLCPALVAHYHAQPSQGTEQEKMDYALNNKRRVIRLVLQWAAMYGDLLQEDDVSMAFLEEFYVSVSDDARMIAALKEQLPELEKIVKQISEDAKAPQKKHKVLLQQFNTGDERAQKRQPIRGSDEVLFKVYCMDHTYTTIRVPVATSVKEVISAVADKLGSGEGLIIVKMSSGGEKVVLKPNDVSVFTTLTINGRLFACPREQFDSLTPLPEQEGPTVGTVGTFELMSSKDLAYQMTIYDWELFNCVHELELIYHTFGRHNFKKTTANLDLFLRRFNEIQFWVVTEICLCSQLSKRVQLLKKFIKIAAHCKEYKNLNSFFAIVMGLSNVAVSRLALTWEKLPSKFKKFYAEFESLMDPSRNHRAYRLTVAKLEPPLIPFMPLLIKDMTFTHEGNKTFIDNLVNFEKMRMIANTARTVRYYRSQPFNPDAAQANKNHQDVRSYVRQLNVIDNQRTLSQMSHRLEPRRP
The campaign covered roughly 360,000 compounds. About 660 (0.18%) were called active. Another 2% or so got no clear call; they are omitted. Calls come from the whole dose curve; as a rule, active = well fitted inhibition curve with a large enough effect; inconclusive = small, poorly fitted or top-dose-only effect; inactive = no such curve, though single readings can be large or run the other way. What follows is part of a selection rich in actives, with near analogues and random picks from the rest.
The reply should name one outcome from TRUE = active, FALSE = inactive

Prompt: Fill in: this test's call for COCOCCn1cc(CN2CCS(=O)(=O)N(Cc3ccc(-c4ccccc4)cc3)C(CC(C)C)C2=O)nn1 (configuration not stated) is ___
Response: TRUE

Prompt: Call for entry Cc1ccc2cccc([N+](=O)[O-])c2n1 :
Response: FALSE

Prompt: Outcome logged for COc1ccccc1NC(=O)CCSc1nnc(-c2ccc(O)cc2)o1 in this assay:
Response: FALSE

Prompt: Assay outcome for O=[N+]([O-])c1ccccc1Nc1ccc(O)cc1 : what was it?
Response: FALSE

Prompt: Outcome? O=C(Nc1ccccc1-c1nnn(CC(=O)N2CCCc3ccccc32)n1)c1cccc(Cl)c1
Response: FALSE

Prompt: So what was the verdict on COCc1cccc(-c2csc(C(O)c3ccc(F)cc3)n2)c1 (configuration not stated) in this test?
Response: FALSE

Prompt: What was the test verdict on CCN1CCCC1CNC(=O)c1ccc2c(c1)NC(=O)/C(=C\c1ccccc1F)S2 (configuration not stated) ?
Response: FALSE

Prompt: // param item: Cc1ccc(Nc2cc(C)nc3c(C)ccc([N+](=O)[O-])c23)cc1 ; yields the recorded call
Response: TRUE

Prompt: Dear colleague, could you share the recorded outcome for Cc1cc(NC(=O)Cn2nc(C(F)(F)F)c3c2CCCC3)no1 when you have a moment?
Response: FALSE

Prompt: Test call for this molecule, please: Oc1c(Cl)cc(Cl)c(Cl)c1Cc1c(O)c(Cl)cc(Cl)c1Cl
Response: TRUE

Prompt: Assay result, entry N#C/C(C(=O)N1CCOCC1)=C1/SC(Cc2ccc(F)cc2)C(=O)N1c1ccccc1 (configuration not stated) — outcome?
Response: FALSE

Prompt: Status in this test for N#CC(C(N)=O)=C1CCC2(CC1)OCCCCO2 ?
Response: FALSE

Prompt: I would be grateful if you could indicate the recorded call for CCCCn1nc(C(=O)OCC(=O)Nc2sccc2C(N)=O)c2ccccc2c1=O .
Response: FALSE

Prompt: Per the records of this test, what outcome belongs to c1ccc(-c2ccnc3nc(-n4cccc4)nn23)cc1 ?
Response: FALSE

Prompt: Tell me the assay call for Cc1ccc(-n2ncc3c2CC(C)(C)CC3NC(=O)CCc2cnn(C)c2)cc1 (configuration not stated) please.
Response: FALSE

Prompt: # fetch the recorded call for COc1ccc(C(CCN(Cc2ccc(OC)c(OC)c2)C(=O)CCl)c2ccccc2)cc1 (configuration not stated) here
Response: FALSE

Prompt: Name the outcome recorded for O=C(NCc1ccccc1)C1CNCC(C(=O)NCc2ccccc2)C1 (configuration not stated) in the assay.
Response: FALSE

Prompt: Identify the outcome logged in this assay for the molecule shown: CC(=O)OCC(C)n1c(=O)c2ccccc2n1C(C)=O (configuration not stated)
Response: FALSE

Prompt: Short answer needed: outcome of this test for CN[C@H]1C[C@H]2c3cc(Oc4ccccc4C)ccc3CCN2C(=O)[C@H]1[C@H](C)O ?
Response: FALSE

Prompt: Which outcome was assigned to CC(=O)Nc1ccc(SC[C@H](Cc2ccccc2)N2CC[C@@H](C)CCC2=O)cc1 in this test?
Response: FALSE

Prompt: Returns: the outcome recorded for CN(C(=O)CSc1nnc(N)s1)c1c(N)n(Cc2ccccc2)c(=O)[nH]c1=O in this assay.
Response: FALSE

Prompt: What was the test verdict on COc1ccc(OCCCC(=O)Nc2cccc(S(=O)(=O)N3CCCCCC3)c2)cc1 ?
Response: FALSE

Prompt: Hi, sorry to bother you, what did the test record for C=C1C(=O)OC2C1CCC(C)=CCCC1(C)OC21 (configuration not stated) ?
Response: FALSE

Prompt: Returns: the outcome recorded for COCCn1nnnc1CN1CCC(NC(=O)Nc2cccc(OC)c2)CC1 in this assay.
Response: FALSE

Prompt: Assay outcome for O=C1N[C@H](Cc2ccccc2)C(=O)N[C@H]1Cc1cn(S(=O)(=O)c2ccccc2)c2ccccc12 : what was it?
Response: FALSE

Prompt: # lookup: test call for COc1ccc(NC(=O)C(C)N2c3cccc4cccc(c34)S2(=O)=O)c(OC)c1 (configuration not stated)
Response: FALSE

Prompt: What is the recorded call for this molecule in the test? COCOCCn1cc(CN2CCS(=O)(=O)N(Cc3ccc(-c4cccc(N(C)C)c4)cc3)C(CC(C)C)C2=O)nn1 (configuration not stated)
Response: FALSE

Prompt: Hello, I am checking results. What call was entered for C[N+](C)(C)CCNC(=O)c1cc[n+](Cc2ccccc2)c(/C=N/O)c1 ?
Response: FALSE

Prompt: Status in this test for Cc1cccc(C)c1NC1=NC(=S)N(c2ccc(N(C)C)cc2)C1(C)C ?
Response: FALSE

Prompt: Please state the recorded outcome for this molecule: COc1ccc(C(C)NC(=O)C23CC4CC(CC(C4)C2)C3)cc1 (configuration not stated)
Response: FALSE

Prompt: Fill in: this test's call for Nc1[nH]c(C(=O)c2ccccc2)c(-c2ccc(Br)cc2)c1C(=O)NC1CC1 is ___
Response: FALSE

Prompt: Please share the test call associated with O=C(c1cccc(S(=O)(=O)N2CCCC2)c1)N(Cc1ccco1)C1CCS(=O)(=O)C1 (configuration not stated) .
Response: FALSE

Prompt: What call does the record list for O=[N+]([O-])c1cc(Cl)cc(/C=N/NC(=S)Nc2cc(S(=O)(=O)N3CCOCC3)ccc2Cl)c1O ?
Response: TRUE

Prompt: Which outcome was assigned to COc1ccc(/C=C2\SC(=N)N(c3ccc(F)cc3)C2=O)cc1 in this test?
Response: FALSE

Prompt: Outcome logged for CN(Cc1ccccc1)C(=O)COc1ccccc1 in this assay:
Response: FALSE

Prompt: Outcome? Cc1cc(C)cc(NC(=O)NC2CCN(CC(=O)Nc3cccc(Cl)c3C)CC2)c1
Response: FALSE

Prompt: Hi, sorry to bother you, what did the test record for CC(C)Nc1ccc(-n2nc3ccccc3[n+]2[O-])cc1 ?
Response: FALSE

Prompt: Could you please tell me the result logged for O=S(=O)(/N=C(/Nc1ccccc1)c1ccccc1)c1cccs1 in this assay?
Response: FALSE

Prompt: What did this assay record as the result for COc1ccc(CN(C)C(=O)CC(c2ccccc2)c2ccccc2)cc1 ?
Response: TRUE

Prompt: Tell me the assay call for Cc1ccc(C)c(-n2ccnc2SCC(N)=O)c1 please.
Response: FALSE

Prompt: Per the assay record, what outcome was assigned to O=C(Nc1ccc2c(c1)OCCO2)C1c2ccccc2OCC(=O)N1Cc1ccccn1 (configuration not stated) ?
Response: FALSE

Prompt: Any idea what this test logged for CCCCOCCCNC(=O)C[C@@H]1C[C@@]2(C(=O)OCC)CCCC=C2N(CCC2=CCCCC2)C1=O ?
Response: FALSE
